read-out: Fatty Acid-Binding Protein 1 (FABP1), FABP1 (gene 2168); test: LTEA_HepaRG_FABP1: Life Technologies and Expression Analysis (LTEA) Assay for Fatty Acid-Binding Protein 1 (FABP1) using HepaRG (AID 2283494); settings: mRNA level, 48 h; actives raise or lower the signal
Activity calls are given as the source filed them. The calls were made as follows: active = hit-call score of the fitted dose curve at least 0.9, where 1 is the maximum; inactive = score below 0.9.
In this exercise, the only acceptable responses are TRUE (active), FALSE (inactive)

Solved cases below.
Returns: the outcome recorded for "CN(C)N=O" in this assay. FALSE

// repeat for "O=c1[nH]c(=O)[nH]c(=O)[nH]1" and report FALSE

// repeat for "CCC(C)(C)c1ccc(O)c(C(C)(C)CC)c1" and report FALSE

// repeat for "C=CC(=O)OCCCCCC(C)C" and report FALSE

Continuing:
Returns: the outcome recorded for "O=C(Nc1ccc2[nH]ccc2c1)c1cc2cc(F)ccc2n1Cc1cccc(F)c1" in this assay. TRUE

// repeat for "ClCC(Cl)CCl" and report FALSE

// repeat for "CCN1CCC2(CC1)COc1cc3c(cc12)N(C(=O)c1ccc(-c2ccc(-c4nnc(C)o4)cc2C)cc1)CC3" and report TRUE

// repeat for "O=[N+]([O-])c1ccc(O)c([N+](=O)[O-])c1" and report TRUE

---

target: human Opioid Receptor Mu (Opiate Mu), OPRM1 (gene 4988) (UniProt P35372); test: NVS_GPCR_hOpiate_mu: NovaScreen (NVS) G Protein-Coupled Receptor Assay for human Opioid Receptor Mu (Opiate Mu) (AID 2283290);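 also: hits lower bound tracer signal versus DMSO meaning displacement of the ligand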
Sequence (P35372 whole entry, looked up): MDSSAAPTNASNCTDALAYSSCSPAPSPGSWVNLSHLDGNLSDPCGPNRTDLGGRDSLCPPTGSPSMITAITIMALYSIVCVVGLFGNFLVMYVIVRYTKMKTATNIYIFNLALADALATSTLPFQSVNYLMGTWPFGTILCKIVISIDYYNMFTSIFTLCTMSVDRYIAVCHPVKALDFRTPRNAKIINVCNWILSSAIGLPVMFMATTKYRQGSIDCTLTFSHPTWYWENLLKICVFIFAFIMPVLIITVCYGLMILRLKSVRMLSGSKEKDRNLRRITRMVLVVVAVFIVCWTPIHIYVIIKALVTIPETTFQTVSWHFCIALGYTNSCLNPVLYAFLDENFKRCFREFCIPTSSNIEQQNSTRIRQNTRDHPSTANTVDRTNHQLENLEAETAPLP
Records with an inconclusive call do not appear. Calls of active or inactive are those of the source. How the source made its calls: active means hit-call score of the fitted dose curve at least 0.9, where 1 is the maximum; inconclusive means response in the unintended direction; inactive means score below 0.9.
In this exercise, the only acceptable responses are active, inactive

Solved cases below.
Returns: the outcome recorded for "ClC1=C(Cl)[C@]2(Cl)[C@H]3[C@H]([C@H]4C=C[C@H]3C4)[C@@]1(Cl)C2(Cl)Cl" in this assay. inactive

// repeat for "CC(C)(C)c1cc(O)ccc1O" and report inactive

// repeat for "CC(C)(C)CC(C)(C)c1ccc(O)cc1" and report active

// repeat for "O=C(Nc1ccc2[nH]ccc2c1)c1cc2cc(F)ccc2n1Cc1cccc(F)c1" and report inactive

Next, consider the following molecule.
Returns: the outcome recorded for "CCOP(=S)(OCC)SCSP(=S)(OCC)OCC" in this assay. inactive

---

test: APR_HepG2_MitoMembPot_24hr: Apredica 24-hour HepG2 Assay for Mitochondrial Membrane Potential (AID 2282911); conditions: imaging, actives raise or lower the signal
Active and inactive are the calls of the source. Rule for the calls: active = hit-call score of the fitted dose curve at least 0.9, where 1 is the maximum; inactive = score below 0.9.
assay.metric: AC50

See these solved cases before continuing.
Any idea what its AC50 is? The compound is "CC(C)(C)CC(C)(C)c1ccc(O)cc1" 25.3 µM (active)

// repeat for "C[C@@H]1C[C@@H]([C@H](O)CC2CC(=O)NC(=O)C2)C(=O)[C@@H](C)C1" and report inactive

// repeat for "CC(C)(c1ccccc1)c1ccc(O)c(C(C)(C)c2ccccc2)c1" and report 29.4 µM (active)

// repeat for "CCCCCCCCc1ccc(O)cc1" and report inactive

// repeat for "O=C(O)C(F)(F)C(F)(F)C(F)(F)C(F)(F)C(F)(F)C(F)(F)C(F)(F)C(F)(F)C(F)(F)C(F)(F)F" and report inactive

Continuing:
Any idea what its AC50 is? The compound is "Cc1ccccc1N" inactive

// repeat for "ClCC(Cl)CCl" and report inactive
